Recorded melting point by entry
outcome-measure: melting point

[[record]]
query_smiles = "COc1ccc2c(c1)C(=O)N(c1ccc3c(ccn3C)c1)C2"
result = "193 to 197 °C"

[[record]]
query_smiles = "Cn1c2c(c(=O)n3nc(-c4ccccc4)cc13)CN(C1CCCCC1)C2=O"
result = "276 to 279 °C"

[[record]]
query_smiles = "C#CCOc1nc(C(F)(F)F)cc(=O)n1-c1cc(C(=O)OC(C)C)c(Cl)cc1F"
result = "117 to 119 °C"

[[record]]
query_smiles = "Cc1ccc(=O)[nH]c1C"
result = "202 to 207 °C"


----------
Recorded melting point by entry
outcome-measure: melting point

[[record]]
compound = "CC(C)c1cc(C(C)C)c(CC(=O)NS(=O)(=O)Oc2c(C(C)C)cc(NCCO)cc2C(C)C)c(C(C)C)c1"
result = "149 to 152 °C"

[[record]]
compound = "OC(Cc1cc(-c2ccccc2)on1)N1CCOCC1 (configuration not stated)"
result = "134 to 136 °C"

[[record]]
compound = "COc1ccc(CCC(=O)CCC(Cc2ccc(OC)c(OC)c2)[N+](=O)[O-])cc1 (configuration not stated)"
result = "87 to 89 °C"

[[record]]
compound = "C=CCC1(C(=O)NCc2ccccn2)c2ccccc2-c2ccccc21"
result = "110 to 111 °C"

[[record]]
compound = "C#CCCCOc1ccc(C=O)cc1OC"
result = "91 to 92 °C"

[[record]]
compound = "COCc1c(C(=O)OC(C)C)ncc2[nH]c3ccc(CCc4ccc(Cl)cc4)cc3c12"
result = "149 to 151 °C"

[[record]]
compound = "CNc1ncnc2c(NC3OC(CO)C(O)C3O)ncnc12 (configuration not stated)"
result = "230 °C"


Data origin, for the record: a melting point compilation (Tetko et al.; mined from patent text by program, amines drawn as free bases though some values may be those of a salt)
